measured-on: Recombinant human BRD4 containing dual bromodomains (BRD4-BD12 (1-477)) (Homo sapiens)
Construct: Recombinant human BRD4 containing dual bromodomains (BRD4-BD12 (1-477))
assay-method-text: BRD4 Alphascreen binding assay
observation-type: IC50

[
  {
    "molecule": "Cc1noc(C)c1-c1cnc2c(C(O)(C3CC3)C3CC3)cn(-c3ccc(C(=O)O)cc3OC(F)(F)F)c2c1 [P-0163]",
    "IC50": "8 to 1000 µM"
  }
]

Please report IC50 for every entry that follows.
1. Cc1noc(C)c1-c1cnc2c(-c3ccc(C(=O)O)cc3F)c(C(F)(F)F)n([C@@H](C)c3ccccn3)c2c1 [P-0234]
2. Cc1noc(C)c1-c1cnc2c(-c3ccccc3C#N)cn(C(C)(c3ccccn3)c3ccccn3)c2c1 [P-0169]
3. CCc1onc(C)c1-c1cnc2c(c1)c(-c1c(Cl)cc(C(=O)O)cc1OC(F)(F)F)cn2-c1ccc(C2CC2)nc1 [P-0448]
4. Cc1noc(C)c1-c1cnc2c(c1)c(-c1c(Cl)cc(C(=O)O)cc1OC1CCC1)cn2-c1ncccc1C#N [P-0396]
5. CCOc1nc(C(=O)O)ccc1-c1cn(C2(C)CCOCC2)c2ncc(-c3c(C)noc3C)cc12 [P-0405]
6. Cc1noc(C)c1-c1cnc2c(c1)c(-c1c(Cl)cc(C(=O)O)cc1OCC(F)F)cn2C(C1CC1)C1CC1 [P-0340]
7. Cc1noc(C)c1-c1cnc2c(c1)c(-c1cc(F)c(C(=O)O)cc1OC(F)(F)F)cn2-c1ccc(C2CC2)nc1 [P-0444]

# output
["1 to 8 µM", "0.0001 to 1 µM", "1 to 8 µM", "1 to 8 µM", "1 to 8 µM", "8 to 1000 µM", "1 to 8 µM"]

Give me IC50 for each of these molecules, listed below.
1. Cc1noc(C)c1-c1cnc2c(CC3CCC3)cn(-c3c(OC(C)C)cc(C(=O)O)cc3OC(C)C)c2c1 [P-0111]
2. Cc1noc(C)c1-c1cnc2c(Cc3ccccn3)cn(-c3ccc(C(=O)O)cc3OC(F)(F)F)c2c1 [P-0159]
3. Cc1noc(C)c1-c1cnc2c(CC3CCC3)cn(-c3ccc(C#N)cc3)c2c1 [P-0076]
4. CCOc1cc(C(=O)O)cc(OCC)c1-n1cc(CC2CCC2)c2ncc(-c3c(COC)noc3C)cc21 [P-0210]
5. Cc1noc(C)c1-c1cnc2c(c1)c(-c1ccc(C(=O)O)cc1OCC(F)F)cn2-c1ccncc1Cl [P-0306]
6. CCOc1cc(C(=O)O)nc(OCC)c1-c1cn(C2CCC(F)(F)CC2)c2ncc(-c3c(C)noc3C)cc12 [P-0425]
7. CCc1onc(C)c1-c1cnc2c(c1)c(-c1ccc(C(=O)O)cc1OC(F)(F)F)cn2C1CCOCC1 [P-0401]

# output
1: 8 to 1000 µM; 2: 0.0001 to 1 µM; 3: 8 to 1000 µM; 4: 8 to 1000 µM; 5: 8 to 1000 µM; 6: 8 to 1000 µM; 7: 1 to 8 µM

The following molecules each have a reported value; give each one's IC50.
1. Cc1noc(C)c1-c1cnc2c(c1)c(-c1cnn(CC(C)(C)O)c1)cn2C(c1ccccn1)C1CCCC1 (stereo not shown) [P-0037]
2. COc1cc(-c2c(C(F)(F)F)n([C@@H](C)c3ccccn3)c3cc(-c4c(C)noc4C)cnc23)ccc1C(=O)O [P-0244]
3. CCOc1cc(C(=O)O)c(F)cc1-c1cn(C2CCOCC2)c2ncc(-c3c(C)noc3C)cc12 [P-0375]
4. Cc1noc(C)c1-c1cnc2c(-c3cc(Cl)cc(C(=O)O)c3)c(C(F)(F)F)n([C@@H](C)c3ccccn3)c2c1 [P-0241]
5. Cc1noc(C)c1-c1cnc2c(c1)c(-c1ccc(C(=O)O)cc1OC(F)(F)F)cn2C1CCNCC1 [P-0290]
6. Cc1noc(C)c1-c1cnc2c(c1)c(-c1c(Cl)cc(C(=O)O)cc1OCC(F)F)cn2C1CCOCC1 [P-0359]

# output
1: 1 to 8 µM; 2: 1 to 8 µM; 3: 8 to 1000 µM; 4: 8 to 1000 µM; 5: 8 to 1000 µM; 6: 8 to 1000 µM
